Molecular target: human IL-17A (recombinant) (human, UniProt Q16552 24-155)
Sequence (Q16552 24-155): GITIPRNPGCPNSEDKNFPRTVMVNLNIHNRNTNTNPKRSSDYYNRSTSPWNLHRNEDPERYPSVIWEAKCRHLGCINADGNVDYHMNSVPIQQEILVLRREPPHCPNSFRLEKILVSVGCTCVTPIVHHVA
Assay: SPR
measurement.type: pKd
Reminder that pKd means the negative base-10 logarithm of the concentration expressed in mol/L.

Entry under review: BDG11.004 (human IgG1) (antibody, V domains shown) VH: EVQLVQSGAEVKKPGESLKISCKGSGYSFTSYWIGWVRQMPGKGLEWMGIIYPSDSDTRYSPSFQGQVTISADKSISTAYLQWSSLKASDTAMYYCARYPNYGAFDIWGQGTMVTVSS VL: EIVLTQSPATLSLSPGERATLSCRASQSVSSYLAWYQQKPGQAPRLLIYDASNRATGIPARFSGSGSGTDFTLTISSLEPEDFAVYYCQQYFYWGWPFGQGTKLEIK . Reported pKd? 8.06

The origin of these recorded values is paper PMC10542344.
